assay: Selectivity index, ratio of CC50 for human MT-4 cells to EC50 for HIV-1 infected in MT-4 cells; format: toxicity, cell-based; conditions: read-out: Ratio CC50/EC50
Endpoint label: selectivity ratio
Form rule: numeric answer, no unit written next to it.

Give the reported value of selectivity ratio for this record: "CC(C)OC(=O)[C@H](C)N[P@](=O)(CO[C@H](C)Cn1cnc2c(N)ncnc21)Oc1ccc(C[C@H](NC(=O)OCc2ccccc2)C(=O)OC2CCCC2)cc1" 143000

Answer with the recorded selectivity ratio of C[C@H](Cn1cnc2c(N)ncnc21)OCP(=O)(O)O [TENOFOVIR ANHYDROUS] only. 36

Could you please provide reported selectivity ratio for CC(C)OC(=O)[C@H](C)N[P@](=O)(CO[C@H](C)Cn1cnc2c(N)ncnc21)Oc1ccccc1.CC(C)OC(=O)[C@H](C)N[P@](=O)(CO[C@H](C)Cn1cnc2c(N)ncnc21)Oc1ccccc1.O=C(O)/C=C/C(=O)O [TENOFOVIR ALAFENAMIDE FUMARATE] ? Thanks! 5470

====

Hi there, I'd appreciate the recorded log10 Drug uptake for every entry that follows.
test: Drug uptake in human CCRF-CEM cells assessed as intracellular intact prodrug level at 50 uM after 45 mins by ECHO-MS analysis; format: ADME, cell-based; settings: 0.75 h
Each number you see is log10 of Drug uptake, and the unit inside the log is pmol.

Query log10 Drug uptake for "CC(C)OC(=O)[C@H](C)N[P@](=O)(CO[C@H](C)Cn1cnc2c(N)ncnc21)Oc1ccc(C[C@H](NC(=O)OCc2ccccc2)C(=O)OC2CCCC2)cc1" -0.72

Entry "CC(C)OC(=O)[C@H](C)N[P@](=O)(CO[C@H](C)Cn1cnc2c(N)ncnc21)Oc1ccc(C[C@H](NC(=O)CCc2ccccc2)C(=O)OC2CCCC2)cc1" needs its log10 Drug uptake filled in; supply it. -0.43

Identify the reported log10 Drug uptake for the following entry. "CC(C)OC(=O)[C@H](C)N[P@@](=O)(CO[C@H](C)Cn1cnc2c(N)ncnc21)Oc1ccc(C[C@H](NC(=O)OCc2ccccc2)C(=O)CC2CCCC2)cc1" 2.39

Write down log10 Drug uptake measured for item "CC(C)OC(=O)[C@H](C)N[P@@](=O)(CO[C@H](C)Cn1cnc2c(N)ncnc21)Oc1ccc(C[C@H](NCCCc2ccccc2)C(=O)CC2CCCC2)cc1" 2.43

Answer with reported log10 Drug uptake of "CC(C)OC(=O)[C@H](C)N[P@](=O)(CO[C@H](C)Cn1cnc2c(N)ncnc21)Oc1ccc(C[C@H](NCCCc2ccccc2)C(=O)CC2CCCC2)cc1" 1.06

Indicate the recorded log10 Drug uptake value for this compound: "CC(C)OC(=O)[C@H](C)N[P@](=O)(CO[C@H](C)Cn1cnc2c(N)ncnc21)Oc1ccc(C[C@H](NC(=O)OCc2ccccc2)C(=O)CC2CCCC2)cc1" 2.01

====

assay: Cytotoxicity against in human MT4 cells after 5 days by XTT assay; format: cell-based; settings: time 5 day
With a cut-off of 10 µM, any CC50 at 120 h strictly below it is called Satisfied; any CC50 at 120 h meeting it or above is called Not satisfied.

is_below(CC50 at 120 h, 10 µM) for CC(C)OC(=O)[C@H](C)NP(=O)(CO[C@H](C)Cn1cnc2c(N)ncnc21)Oc1ccc(C[C@H](NC(=O)OCc2ccccc2)C(=O)OC(C)C)cc1 (some centres not stated) ? Satisfied

State whether 10 µM exceeds CC50 at 120 h recorded for "CC(C)OC(=O)[C@H](C)N[P@](=O)(CO[C@H](C)Cn1cnc2c(N)ncnc21)Oc1ccc(C[C@H](NC(=O)OCc2ccccc2)C(=O)OC2CCCCC2)cc1" . Satisfied

Input "COC(=O)[C@H](Cc1ccc(O[P@@](=O)(CO[C@H](C)Cn2cnc3c(N)ncnc32)N[C@@H](C)C(=O)OC(C)C)cc1)NC(=O)c1ccccc1" ; condition: CC50 at 120 h strictly below 10 µM. Does it hold? Not satisfied

For this compound, is CC50 at 120 h lower than 10 µM? "CC(C)CCOC(=O)[C@H](Cc1ccc(O[P@](=O)(CO[C@H](C)Cn2cnc3c(N)ncnc32)N[C@@H](C)C(=O)OC(C)C)cc1)NC(=O)OCc1ccccc1" Not satisfied

Dear colleague, could you confirm whether CC50 at 120 h of "COC(=O)[C@H](Cc1ccc(O[P@](=O)(CO[C@H](C)Cn2cnc3c(N)ncnc32)N[C@@H](C)C(=O)OC(C)C)cc1)NC(=O)C(F)(F)F" falls below 10 µM? Thanks. Not satisfied

Quick check: does "CCCCCCOC(=O)[C@H](Cc1ccc(O[P@](=O)(CO[C@H](C)Cn2cnc3c(N)ncnc32)N[C@@H](C)C(=O)OC(C)C)cc1)NC(=O)OCc1ccccc1" have CC50 at 120 h under 10 µM? Not satisfied

Dear reviewer, please state whether "CC(C)CCOC(=O)[C@H](Cc1ccc(O[P@@](=O)(CO[C@H](C)Cn2cnc3c(N)ncnc32)N[C@@H](C)C(=O)OC(C)C)cc1)NC(=O)OCc1ccccc1" has CC50 at 120 h strictly beneath 10 µM. Satisfied

Item CCOC(=O)[C@H](Cc1ccc(OP(=O)(CO[C@H](C)Cn2cnc3c(N)ncnc32)N[C@@H](C)C(=O)OC(C)C)cc1)NC(=O)OCc1ccccc1 (some centres not stated) : CC50 at 120 h beneath 10 µM, strictly? Not satisfied

Hello, is CC50 at 120 h of the following compound strictly smaller than 10 µM? "COC(=O)[C@H](Cc1ccc(O[P@](=O)(CO[C@H](C)Cn2cnc3c(N)ncnc32)N[C@@H](C)C(=O)OC(C)C)cc1)NC(C)=O" Not satisfied

Please let me know if "CC(C)OC(=O)[C@H](C)N[P@@](=O)(CO[C@H](C)Cn1cnc2c(N)ncnc21)Oc1ccc(C[C@H](NC(=O)OCc2ccccc2)C(=O)OC2CCCCC2)cc1" shows CC50 at 120 h below 10 µM. Not satisfied

Consider "CC(C)OC(=O)[C@H](C)N[P@](=O)(CO[C@H](C)Cn1cnc2c(N)ncnc21)Oc1ccc(C[C@H](NCCCc2ccccc2)C(=O)CC2CCCC2)cc1" . Does its CC50 at 120 h lie strictly below 10 µM? Not satisfied

I'd appreciate it if you could check whether "CCCCCCOC(=O)[C@H](Cc1ccc(O[P@@](=O)(CO[C@H](C)Cn2cnc3c(N)ncnc32)N[C@@H](C)C(=O)OC(C)C)cc1)NC(=O)OCc1ccccc1" has CC50 at 120 h smaller than 10 µM. Not satisfied
